experiment: chemical genetic growth profiling, strain panel (AID 1159580);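 also: tested at 20 µM; growth read once vehicle control cultures reached saturation at 30 °C; 1 = growth at the plate median or of vehicle wells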; settings: S. cerevisiae deletion strains, growth OD, locus YCL061C, strain MRC1, stronger effect = lower value
Screen size: about 5,500 compounds; about 2,000 (36%) were called active. Not shown: some 18% with an inconclusive outcome. Some of the results follow.

{"columns": ["molecule", "normalized growth"],
 "data": [
  ["O=C(Nc1ccc(C(F)(F)F)cc1)Nc1ccccc1C(=O)O", "0.967 (inactive)"],
  ["Nc1ccc(S(=O)(=O)Nc2ccc(Cl)nn2)cc1", "0.984 (inactive)"],
  ["CC(C)NCC(O)c1ccc2ccccc2c1 (stereo not drawn)", "1.01 (inactive)"]
]}

---

assay: chemical genetic growth profiling, strain panel (AID 1159580); conditions: S. cerevisiae deletion strains, growth OD, locus YMR307W, strain GAS1, stronger effect = lower value
Hit rate of the full screen: of about 5,500 compounds, about 2,000 (36%) were called active. About 18% were inconclusive and are not listed. Some of the results follow.
property-name: normalized growth

{"columns": ["compound", "reported-measurement"],
 "data": [
  ["CCCC(C)C1(CC)C(=O)N=C(S)NC1=O (centres undefined)", 0.992],
  ["Oc1c(Cl)cc(Cl)c2cccnc12", 0.101],
  ["C1CCN2C[C@@H]3C[C@H](CN4CCCC[C@@H]34)[C@H]2C1", 1.02],
  ["CS(=O)(=O)CCCCN=C=S", 0.734],
  ["COc1cc2c(c(OC)c1OC)-c1ccc(OC)c(=O)cc1C(NC(C)=O)CC2 (centres undefined)", 0.984],
  ["CN(C)C(N)=NCCC[C@H](N)C(=O)O", 1.01],
  ["Cc1c(O)c(O)cc2c1CC=C1[C@@]2(C)CC[C@@]2(C)C3C[C@](C)(C(=O)O)CC[C@]3(C)CC[C@]12C (some centres undefined)", 0.782],
  ["c1ccc2c3c([nH]c2c1)CNCC3", 1.02],
  ["Oc1ccc(Cl)c2cccnc12", 0.132],
  ["CC(=O)Nc1ccc(S(=O)(=O)Nc2ccc([N+](=O)[O-])cc2)cc1", 0.989],
  ["Cc1oc(S(=O)(=O)N(C)C)cc1C(=O)O", 0.976],
  ["COc1cc(C(=O)NCc2ccc(OCCN(C)C)cc2)cc(OC)c1OC", 1.05],
  ["C[C@H]1[C@H]2CCC3C4CC=C5C[C@@H](N(C)C)CC[C@]5(C)C4CC[C@@]32CN1C (some centres undefined)", 0.874],
  ["CC#CCOC(=O)c1c(C)nc2sc3c(c2c1N)CCC(O)C3 (centres undefined)", 0.994],
  ["CC(C)(C)c1ccc(C(O)CCCN2CCC(C(O)(c3ccccc3)c3ccccc3)CC2)cc1 (centres undefined)", 1.01],
  ["CC1(C)C(O)CC(O)C2(C)C1CC(=O)C1(C)C2CCC2(C)C(C(=O)O)OC(=O)C3OC321 (centres undefined)", 0.99],
  ["CC(=O)OCC1(C)CCC2(C)CCC3(C)C4=CCc5c(cc(OC(C)=O)c(OC(C)=O)c5C)C4(C)CCC3(C)C2C1 (centres undefined)", 1.07],
  ["Nc1ncn([C@@H]2O[C@H](CO)[C@@H](O)[C@H]2O)c(=O)n1", 0.982],
  ["COc1ccc(C(Cl)=C(c2ccc(OC)cc2)c2ccc(OC)cc2)cc1", 1],
  ["O=C(N/N=C\\C=C\\c1ccccc1)c1ccccc1-n1cccc1", 0.713],
  ["O=S(=O)(N/N=C\\c1ccc(Cl)cc1)c1ccc(-c2ccccn2)s1", 0.712],
  ["COc1cc2c(c(OC)c1OC)-c1ccc(OC)c(=O)cc1[C@@H](NC(C)=O)CC2", 0.99],
  ["CN(C(=O)CCCOc1ccc2[nH]c(=O)ccc2c1)C1CCCCC1", 1.01],
  ["CC(C)(C)NC[C@@H](O)COc1nsnc1N1CCOCC1", 0.921]
]}

---

test: chemical genetic growth profiling, strain panel (AID 1159580);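 also: tested at 20 µM; growth read once vehicle control cultures reached saturation at 30 °C; 1 = growth at the plate median or of vehicle wells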; settings: S. cerevisiae deletion strains, growth OD, locus YGL253W, strain hxk2, stronger effect = lower value
Among all 5,500 compounds or so, about 2,000 (36%) were called active. Another 18% or so got no clear call; they are omitted. The list shows a part of the results.
Each record here notes measured normalized growth.

{"columns": ["compound", "normalized growth"],
 "data": [
  ["O=[N+]([O-])c1cc([As](=O)(O)O)ccc1O", 0.963],
  ["C1CNCCN1", 0.992],
  ["COc1c2c(cc3c1OCO3)CCN(C)C2", 1.01],
  ["O=C1C=CC2=C3c4cc(O)c(O)cc4C[C@@]3(O)COC2=C1", 0.978],
  ["NCCCC[C@H](N[C@@H](CCc1ccccc1)C(=O)O)C(=O)N1CCC[C@H]1C(=O)O", 0.971],
  ["O=C1C=CC2=C3c4cc(O)c(O)cc4CC3(O)COC2=C1O (centres undefined)", 0.959],
  ["Oc1c(Cl)cc(Cl)c2cccnc12", 0.0551],
  ["C[n+]1cccc(C(=O)[O-])c1", 0.955],
  ["CC/C(=C(\\c1ccccc1)c1ccc(OCCN(C)C)cc1)c1ccccc1", 0.0687],
  ["CCN(CC)CCOc1ccc(/C(=C(\\Cl)c2ccccc2)c2ccccc2)cc1", 0.0662],
  ["CC(=O)NCCCS(=O)(=O)O", 1.01],
  ["Cc1ccc(/C(=C\\CN2CCCC2)c2ccccn2)cc1", 0.98],
  ["NC(=NCCC[C@H](N)C(=O)O)NC(CCC(=O)O)C(=O)O (some centres undefined)", 1.01],
  ["C=C(CC)C(=O)c1ccc(OCC(=O)O)c(Cl)c1Cl", 0.988]
]}

---

assay: chemical genetic growth profiling, strain panel (AID 1159580);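 also: tested at 20 µM; growth read once vehicle control cultures reached saturation at 30 °C; 1 = growth at the plate median or of vehicle wells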; details: S. cerevisiae deletion strains, growth OD, locus YBR023C, strain chs3
Out of some 5,500 compounds screened, about 2,000 (36%) were called active. Not shown: some 18% with an inconclusive outcome. No stated cut-off is given here; in the data, active means normalized growth mostly below about 0.91 (no sharp cut-off); inconclusive means no clear call, values can overlap the other calls; inactive means mostly above about 0.92. The list shows a part of the results.
Possible outcomes: active, inactive

{"columns": ["compound", "classification"],
 "data": [
  ["CC(=O)NCCCS(=O)(=O)O", "inactive"],
  ["CC(=O)Oc1ccc(Cl)c2cccnc12", "active"],
  ["CC(=O)O[C@H]1C[C@@H](OC(C)=O)C(C)(C)C2C[C@@H](OC(C)=O)[C@@]3(C)C4=CC(=O)O[C@@H](c5ccoc5)[C@]4(C)CCC3[C@]21C (some centres not stated)", "inactive"],
  ["Nc1ccc([As](=O)(O)O)cc1", "inactive"],
  ["C1CCN2C[C@@H]3C[C@H](CN4CCCC[C@@H]34)[C@H]2C1", "inactive"],
  ["CC1(C)CCCC2(C)C3C1[C@@H](O)C2(C)C[C@H]3O (some centres not stated)", "inactive"],
  ["Cc1occc(=O)c1O", "inactive"],
  ["C=C(CC)C(=O)c1ccc(OCC(=O)O)c(Cl)c1Cl", "inactive"],
  ["O=[N+]([O-])c1cc([As](=O)(O)O)ccc1O", "inactive"],
  ["COC(=O)C[C@H]1C(C)(C)C(=O)[C@@H]2CC3=C4CC(=O)O[C@@H](c5ccoc5)[C@]4(C)CCC3[C@@]1(C)C2=O (some centres not stated)", "inactive"],
  ["Oc1c(I)cc(I)c2cccnc12", "active"],
  ["C[n+]1cccc(C(=O)[O-])c1", "inactive"],
  ["CC(C)(C)NC[C@@H](O)COc1nsnc1N1CCOCC1", "inactive"],
  ["C1CCN2CC3CC(CN4CCCCC34)C2C1 (configuration not stated)", "inactive"],
  ["CC(=O)O[C@@H]1CC2C(C)(C)C=CC(=O)[C@]2(C)C2CC[C@@]3(C)[C@H](c4ccoc4)OC(=O)C4OC43[C@@]21C (some centres not stated)", "inactive"],
  ["CC(=O)NCCCCCC(=O)O", "inactive"],
  ["CC(=O)Nc1ccc(S(=O)(=O)c2ccc(NC(C)=O)cc2)cc1", "inactive"]
]}

---

Each record here notes measured normalized growth.
assay: chemical genetic growth profiling, strain panel (AID 1159580);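 also: tested at 20 µM; growth read once vehicle control cultures reached saturation at 30 °C; 1 = growth at the plate median or of vehicle wells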; conditions: S. cerevisiae deletion strains, growth OD, locus YGL240W, strain doc1, stronger effect = lower value
In all, about 5,500 compounds went through this assay and about 2,000 (36%) were called active. Roughly 18% stayed inconclusive and do not appear here. This is one part of the list.
property-name: normalized growth

{"columns": ["compound", "reported-measurement"],
 "data": [
  ["COc1cc(C(=O)NCc2ccc(OCCN(C)C)cc2)cc(OC)c1OC", "0.984 (inactive)"],
  ["COc1c2c(cc3c1OCO3)CCN(C)C2", "1.02 (inactive)"],
  ["COC(=O)C[C@H]1C(C)(C)C(=O)[C@@H]2CC3=C4CC(=O)O[C@@H](c5ccoc5)[C@]4(C)CCC3[C@@]1(C)C2=O (some centres undefined)", "1.02 (inactive)"],
  ["C[n+]1cccc(C(=O)[O-])c1", "0.972 (inactive)"],
  ["O=C(O)CCCCC1CCSS1 (centres undefined)", "0.956 (inactive)"],
  ["CC(=O)O[C@H]1C[C@@H](OC(C)=O)C(C)(C)C2C[C@@H](OC(C)=O)[C@@]3(C)C4=CC(=O)O[C@@H](c5ccoc5)[C@]4(C)CCC3[C@]21C (some centres undefined)", "0.973 (inactive)"],
  ["NC(=NCCC[C@H](N)C(=O)O)NC(CCC(=O)O)C(=O)O (some centres undefined)", "1.02 (inactive)"],
  ["COC(C)(C)CCC[C@H](C)C/C=C/C(C)=C/C(=O)OC(C)C", "1.03 (inactive)"],
  ["Nc1ccc(C(=O)NCC(=O)O)cc1", "0.993 (inactive)"]
]}

The measurements presented in this section are drawn from PubChem BioAssay AID1159580.
